Origin of the recorded values: paper PMC7326642

- System under test: cyclin A2-CDK2 complex (Homo sapiens, UniProt P20248+P24941)
- Procedure details: dose response in the in vitro biochemical kinase assay
- Condition: 0 nM to 100 μM, room temperature
Provide the recorded pIC50 for the entries that follow.
In textbook form, pIC50 equals minus log to base ten of the concentration in mol/L.

Q: Sample N#Cc1c(N)nc(N)nc1Nc1ccc(Br)cc1 — what was its pIC50?
A: 5.19

Q: If you can, please state the reported pIC50 value of NC(=S)c1cn(C2OC(CO)C(O)C2O)c2ncnc(N)c12 (centres unmarked) .
A: 8.12
